Reported IC50 values are given for each entry in this list.
# Measured Target: MERS Mpro (Middle East respiratory syndrome-related coronavirus, UniProt K9N7C7)
# Sequence (K9N7C7 3248-3553 limits assumed): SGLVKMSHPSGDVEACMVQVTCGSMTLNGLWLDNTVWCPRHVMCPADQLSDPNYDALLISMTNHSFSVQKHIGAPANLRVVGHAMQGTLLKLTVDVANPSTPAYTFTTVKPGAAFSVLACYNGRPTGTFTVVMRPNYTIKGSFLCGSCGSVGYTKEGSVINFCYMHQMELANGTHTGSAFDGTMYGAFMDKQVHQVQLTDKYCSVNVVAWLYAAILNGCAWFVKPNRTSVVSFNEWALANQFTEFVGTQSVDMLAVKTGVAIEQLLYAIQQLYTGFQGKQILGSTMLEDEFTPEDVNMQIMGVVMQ
# Measurement Notes: biochemical
# Set-up: species or system MERS-CoV
Output spec: scalar in nM, unitless text.

Worked examples follow.
Compound | Unit Label | Test Result
CC1(C)[C@@H]2[C@@H](C(=O)N[C@H](C=O)C[C@@H]3CCNC3=O)N(C(=O)c3cc4cc(S(C)(=O)=O)ccc4[nH]3)C[C@@H]21 | nM | 384
CC1(C)C[C@@H](C(=O)N[C@H](C=O)C[C@@H]2CCNC2=O)N(C(=O)c2cc3cccc(F)c3[nH]2)C1 | nM | 535
CC1(C)C[C@@H](C(=O)N[C@H](C=O)C[C@@H]2CCNC2=O)N(C(=O)c2cc3cccc(C#N)c3[nH]2)C1 | nM | 338
CC1(C)[C@@H]2[C@@H](C(=O)N[C@H](C#N)C[C@@H]3CCNC3=O)N(C(=O)c3cc4cccc(Cl)c4[nH]3)C[C@@H]21 | nM | 5440
O=C[C@H](C[C@@H]1CCNC1=O)NC(=O)[C@@H]1[C@H]2CCC[C@H]2CN1C(=O)c1cc2ccccc2[nH]1 | nM | 173
COc1cc2cc(C(=O)N3C[C@H]4[C@@H]([C@H]3C(=O)N[C@H](C=O)C[C@@H]3CCNC3=O)C4(C)C)[nH]c2cc1OC | nM | 429

Let me check: CC1(C)[C@@H]2[C@@H](C(=O)N[C@H](C=O)C[C@@H]3CCNC3=O)N(C(=O)Cc3ccccc3)C[C@@H]21 , system MERS Mpro (Middle East respiratory syndrome-related coronavirus, UniProt K9N7C7), measured IC50 is 126

Let me check: C[C@H](C(=O)N1C[C@H]2[C@@H]([C@H]1C(=O)N[C@H](C=O)C[C@@H]1CCNC1=O)C2(C)C)c1ccccc1 , system MERS Mpro (Middle East respiratory syndrome-related coronavirus, UniProt K9N7C7), measured IC50 is 684

Let me check: CC1(C)[C@@H]2[C@@H](C(=O)N[C@H](C=O)C[C@@H]3CCNC3=O)N(C(=O)c3cc4sccc4[nH]3)C[C@@H]21 , system MERS Mpro (Middle East respiratory syndrome-related coronavirus, UniProt K9N7C7), measured IC50 is 239

Let me check: CC1(C)[C@@H]2[C@@H](C(=O)N[C@H](C=O)C[C@@H]3CCNC3=O)N(C(=O)c3cc4c(Cl)cccc4[nH]3)C[C@@H]21 , system MERS Mpro (Middle East respiratory syndrome-related coronavirus, UniProt K9N7C7), measured IC50 is 236

Let me check: O=C[C@H](C[C@@H]1CCNC1=O)NC(=O)[C@@H]1C[C@@H](Cc2cccc(Cl)c2)CN1C(=O)c1cc2ccccc2[nH]1 , system MERS Mpro (Middle East respiratory syndrome-related coronavirus, UniProt K9N7C7), measured IC50 is 36300

Let me check: CC(C)c1ccc(Cl)c2[nH]c(C(=O)N3C[C@H]4[C@@H]([C@H]3C(=O)N[C@H](C=O)C[C@@H]3CCNC3=O)C4(C)C)cc12 , system MERS Mpro (Middle East respiratory syndrome-related coronavirus, UniProt K9N7C7), measured IC50 is 239

###

# Measured Target: HCoV-229E Mpro (Human coronavirus 229E, UniProt P0C6X1)
# Sequence (P0C6X1 2966-3267 limits assumed): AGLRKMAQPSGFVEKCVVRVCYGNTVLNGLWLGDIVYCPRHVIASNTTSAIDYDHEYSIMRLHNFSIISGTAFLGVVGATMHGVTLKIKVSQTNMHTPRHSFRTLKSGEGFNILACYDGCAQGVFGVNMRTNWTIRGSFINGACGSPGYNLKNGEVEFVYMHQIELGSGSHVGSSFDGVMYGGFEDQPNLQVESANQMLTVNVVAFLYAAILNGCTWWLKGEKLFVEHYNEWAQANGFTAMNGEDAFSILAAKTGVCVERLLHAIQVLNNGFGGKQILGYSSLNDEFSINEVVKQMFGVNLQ
# Measurement Notes: HCoV-229E Mpro enzymatic inhibition assay (fluorescence)
# Format: biochemical
Measured Endpoint: pIC50
Please report pIC50 as the negative decimal logarithm of the molar concentration, giving only the number.

Worked examples follow.
Molecule | Test Result
CC1(C)[C@@H]2[C@@H](C(=O)N[C@H](C#N)C[C@@H]3CCNC3=O)N(C(=O)C3(c4cccc(Cl)c4)CC3)C[C@@H]21 | 6.34
CO[C@H]1C[C@@H](C(=O)N[C@H](C=O)C[C@@H]2CCNC2=O)N(C(=O)c2cc3ccccc3[nH]2)C1 | 6.93
CC1(C)[C@@H]2[C@@H](C(=O)N[C@H](C=O)C[C@@H]3CCNC3=O)N(C(=O)C3CCCC3)C[C@@H]21 | 6.79

So for O=C[C@H](C[C@@H]1CCNC1=O)NC(=O)[C@@H]1C[C@@H](Cc2cccc(Cl)c2)CN1C(=O)c1cc2ccccc2[nH]1 , the logged pIC50 turned out to be 5.90

So for CC1CCC(CC(=O)N2C[C@H]3[C@@H]([C@H]2C(=O)N[C@H](C=O)C[C@@H]2CCNC2=O)C3(C)C)CC1 (stereo partly shown) , the logged pIC50 turned out to be 7.50

So for CC1(C)[C@@H]2[C@@H](C(=O)N[C@H](C=O)C[C@@H]3CCNC3=O)N(C(=O)c3cc4cc(S(C)(=O)=O)ccc4[nH]3)C[C@@H]21 , the logged pIC50 turned out to be 7.54

So for N#Cc1cccc2cc(C(=O)N3C[C@H](C4CCCCC4)C[C@H]3C(=O)N[C@H](C=O)C[C@@H]3CCNC3=O)[nH]c12 , the logged pIC50 turned out to be 7.19

So for CC1(C)[C@@H]2[C@@H](C(=O)N[C@H](C=O)C[C@@H]3CCNC3=O)N(C(=O)c3cc4ccc(Cl)c(F)c4[nH]3)C[C@@H]21 , the logged pIC50 turned out to be 7.65

So for CC1(C)[C@@H]2[C@@H](C(=O)N[C@H](C=O)C[C@@H]3CCNC3=O)N(C(=O)c3cc4c(F)cc(F)cc4[nH]3)C[C@@H]21 , the logged pIC50 turned out to be 7.40

So for Cc1cccc([C@@H](C)C(=O)N2C[C@H]3[C@@H]([C@H]2C(=O)N[C@H](C=O)C[C@@H]2CCNC2=O)C3(C)C)c1 , the logged pIC50 turned out to be 7.66

So for O=C1NCC[C@H]1C[C@H](NC(=O)[C@@H]1CC2(CC2)CN1C(=O)c1cc2ccccc2[nH]1)C(=O)c1nc2ccccc2s1 , the logged pIC50 turned out to be 7.02

So for CC(C)(C)CC(=O)N1C[C@H]2[C@@H]([C@H]1C(=O)N[C@H](C=O)C[C@@H]1CCNC1=O)C2(C)C , the logged pIC50 turned out to be 7.17

So for CC1(C)[C@@H]2[C@@H](C(=O)N[C@H](C=O)C[C@@H]3CCNC3=O)N(C(=O)c3cc4ccc(F)c(F)c4[nH]3)C[C@@H]21 , the logged pIC50 turned out to be 7.55

So for CC1(C)[C@@H]2[C@@H](C(=O)N[C@H](C#N)C[C@@H]3CCNC3=O)N(C(=O)C3(c4ccccc4)CCCC3)C[C@@H]21 , the logged pIC50 turned out to be 5.52

So for CC(C)c1cccc2[nH]c(C(=O)N3C[C@H]4[C@@H]([C@H]3C(=O)N[C@H](C=O)C[C@@H]3CCNC3=O)C4(C)C)cc12 , the logged pIC50 turned out to be 7.42

So for CC1(C)[C@@H]2[C@@H](C(=O)N[C@H](C=O)C[C@@H]3CCNC3=O)N(C(=O)Cc3ccccc3)C[C@@H]21 , the logged pIC50 turned out to be 7.47

The values you see were collected from patent US20260355212A1.
